Origin of measurements: ChEMBL document CHEMBL3875216

- Tested on: Pseudomonas aeruginosa
- assay_text: Inhibition of LasR-dependent quorum sensing activity in Pseudomonas aeruginosa MH602 harboring GFP-fused […] LasB promoter assessed as inhibition of 3-oxo-dodecanoyl HSL-induced GFP expression at 500 uM measured after 24 hrs by fluorescence assay relative to control
measured_attribute: inhibition (%)
Only the number, expressed in %, is required.

Consider the following illustrative entries.
• O=C(Cc1ccc(Br)cc1)N[C@@H]1[C@@H](O)[C@H](O)[C@@H](CO)O[C@H]1O = 2.4
• CC(=O)N[C@@H]1[C@@H](O)[C@H](O)[C@@H](CO)O[C@H]1O [N-ACETYLGLUCOSAMINE] = 13.6
• COc1ccc(CC(=O)N[C@H]2[C@H](OC(C)=O)O[C@H](COC(C)=O)[C@@H](OC(C)=O)[C@@H]2OC(C)=O)cc1 = 17.8

For the molecule CCCC(=O)N[C@H]1[C@H](OC(C)=O)O[C@H](COC(C)=O)[C@@H](OC(C)=O)[C@@H]1OC(C)=O , give its measured inhibition value.
2.5
